Attribution: paper PMC5666312

# TEST_TARGET: I‐A^b MHC II molecules (Mus musculus, UniProt P14434+P14483)
# Construct: endogenous in cells; host or cells: mouse B-cell lymphoma LB27.4
# Sequence (P14434 24-256): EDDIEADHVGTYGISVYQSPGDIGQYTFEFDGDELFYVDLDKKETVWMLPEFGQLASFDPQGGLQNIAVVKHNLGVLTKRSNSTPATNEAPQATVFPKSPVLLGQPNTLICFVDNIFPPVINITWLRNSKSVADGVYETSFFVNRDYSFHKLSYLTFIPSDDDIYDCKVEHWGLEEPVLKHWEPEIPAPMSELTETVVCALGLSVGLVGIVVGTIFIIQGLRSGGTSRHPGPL
# Sequence (P14483 28-265): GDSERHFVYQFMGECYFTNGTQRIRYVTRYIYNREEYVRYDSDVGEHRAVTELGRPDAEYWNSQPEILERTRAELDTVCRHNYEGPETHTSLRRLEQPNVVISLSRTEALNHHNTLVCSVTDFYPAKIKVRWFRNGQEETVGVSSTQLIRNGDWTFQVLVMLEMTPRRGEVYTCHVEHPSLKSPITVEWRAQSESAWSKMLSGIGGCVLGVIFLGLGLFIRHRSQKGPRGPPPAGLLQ
# EXPERIMENTAL_PROTOCOL: I-A^b binding assay: inhibition of binding of a high-affinity radiolabeled peptide
# TEST_CONTEXT: competition with radiolabeled peptide ROIV (0.1–1 nM); purified I-A^b from LB27.4 B-cell lymphoma; room temperature, 2-day incubation; six concentrations; IC50 approximates Kd
Where no end group is shown, it is not given here.
QUANTITY: IC50 (µM)

QUERY_SEQUENCE | TEST_TARGET | READING
TTLGIFRAAVPSGASTG [ENO] | I‐A^b MHC II molecules (Mus musculus, UniProt P14434+P14483) | 0.115
LHASPYVAPAAAIIEMAE [LDH] | I‐A^b MHC II molecules (Mus musculus, UniProt P14434+P14483) | 0.11
GGSTYIAAKVNEAKD [TIM14] | I‐A^b MHC II molecules (Mus musculus, UniProt P14434+P14483) | 0.302
LIPEYNEAAIMLSEKK [PDI] | I‐A^b MHC II molecules (Mus musculus, UniProt P14434+P14483) | 0.166
LMTTVHASTANQLVV [GAPDH.2] | I‐A^b MHC II molecules (Mus musculus, UniProt P14434+P14483) | 0.98
APSEQTTTPEAATAASN [MSP1] | I‐A^b MHC II molecules (Mus musculus, UniProt P14434+P14483) | 1.35
DNEYDFSGKAALVYGQ [ATPSYN] | I‐A^b MHC II molecules (Mus musculus, UniProt P14434+P14483) | 0.104
INDRNFIATTALSSTEE [AMA1] | I‐A^b MHC II molecules (Mus musculus, UniProt P14434+P14483) | 0.818
NALYNYSIPRPNVTSNL [ETRAMP] | I‐A^b MHC II molecules (Mus musculus, UniProt P14434+P14483) | 0.087
LSEVVIHPETNYALTG [M1] | I‐A^b MHC II molecules (Mus musculus, UniProt P14434+P14483) | 15.9
SGKVVEENPKAIKSGDS [EF1a] | I‐A^b MHC II molecules (Mus musculus, UniProt P14434+P14483) | 2.7
GINHEKYNSSQTIVSNAS [GAPDH.1] | I‐A^b MHC II molecules (Mus musculus, UniProt P14434+P14483) | 2.42
TEVPSLVPPTTNTSHAAPAH [MAHRP] | I‐A^b MHC II molecules (Mus musculus, UniProt P14434+P14483) | 0.872
KILYNSAKPNSDLH [END70] | I‐A^b MHC II molecules (Mus musculus, UniProt P14434+P14483) | 0.478
